Measured log10(MIC99) by item
Test system: Mycobacterium tuberculosis
Experiment: Antibacterial activity against Mycobacterium tuberculosis incubated for 1 to 2 weeks in GastFe medium
Format: functional
Details: Mycobacterium tuberculosis, time 1-2 weeks; read-out: MIC99
Use the decimal logarithm of MIC99 (µM).

- Compound: "Nc1cccc(F)c1C(=O)NNc1ccc(Cl)cc1Cl"
  Study system: "Mycobacterium tuberculosis"
  Recorded number: 0.80
- Compound: "Nc1cccc(F)c1C(=O)NNc1cccc(Cl)c1Cl"
  Study system: "Mycobacterium tuberculosis"
  Recorded number: 1.10
- Compound: "Nc1cccc(F)c1C(=O)NNc1ccccc1Cl"
  Study system: "Mycobacterium tuberculosis"
  Recorded number: 0.49
- Compound: "Nc1cccc(F)c1C(=O)NNc1ccc(C(F)(F)F)cc1"
  Study system: "Mycobacterium tuberculosis"
  Recorded number: 1.06
- Compound: "Nc1cccc(F)c1C(=O)NNC1CCCCC1"
  Study system: "Mycobacterium tuberculosis"
  Recorded number: 1.70

Requested read-out: log10(MIC99). Entry: Nc1cccc(F)c1C(=O)NNc1ccc(F)cc1
0.36

Try Nc1cccc(F)c1C(=O)NNc1cccc([N+](=O)[O-])c1 next.
1.40

Try Nc1cccc(F)c1C(=O)NNc1cccc(F)c1 next.
0.80

Try Nc1cccc(F)c1C(=O)NNc1cc(Cl)ccc1Cl next.
1.40

Try COc1ccc(NNC(=O)c2c(N)cccc2F)cc1 next.
-0.11

Try Nc1cccc(F)c1C(=O)NNc1cc(Cl)cc(Cl)c1 next.
1.40

Try Nc1cccc(F)c1C(=O)NNc1ccc(Cl)c(Cl)c1 next.
1.10
